Target: Dihydrofolate reductase (Rattus norvegicus, UniProt Q920D2)
Sequence (Q920D2 whole entry): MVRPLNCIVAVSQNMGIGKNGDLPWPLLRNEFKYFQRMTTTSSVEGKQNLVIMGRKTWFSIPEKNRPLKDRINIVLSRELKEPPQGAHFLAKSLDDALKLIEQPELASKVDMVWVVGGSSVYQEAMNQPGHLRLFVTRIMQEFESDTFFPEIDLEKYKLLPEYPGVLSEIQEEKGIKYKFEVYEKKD
recorded_metric: IC50 (nM)
Entry rule: numbers only, all in nM.

Fill in IC50 for Nc1nc(N)c2cc(COC(=O)c3ccc(C(=O)N[C@@H](CCCC(=O)O)C(=O)O)cc3)ccc2n1 tested with Dihydrofolate reductase (Rattus norvegicus, UniProt Q920D2).
160
